B1: Lysozyme C, P61626 (parent)
chain: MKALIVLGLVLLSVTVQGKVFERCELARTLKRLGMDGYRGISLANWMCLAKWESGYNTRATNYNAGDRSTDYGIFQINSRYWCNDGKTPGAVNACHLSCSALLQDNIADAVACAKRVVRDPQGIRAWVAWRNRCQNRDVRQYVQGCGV

Variants of: B1
Conditions: Homo sapiens; pH 2.8; 68.8 °C; Thermal; DSC; glycine-HCl 50 mM; reversible: yes; structure 1LZ1; whole UniProt chain shown
test.readout: heat capacity change of unfolding (kcal/mol/K)
Write it as a number; the unit kcal/mol/K goes unstated.

[
  {
    "sequence.text": "MKALIVLGLVLLSVTVQGKVFERCELARTLKRLGMDGYRGISLANWMCLAKWESGYNTRATNYNAGDRSTDYGIFQINSRYWCNDGKTPGAVNACHLSCSALLQDNIADAVACAKRVVRDGQGIRAWVAWRNRCQNRDVRQYVQGCGV [P121G]",
    "number": 1.58
  },
  {
    "sequence.text": "MKALIVLGLVLLSVTVQGKVFERCELARTLKRLGMDGYRGISLANWMCLAKWESGYNTRATNYNAGDRSTDYGIFQINSRYWCNDGKTGGAVNACHLSCSALLQDNIADAVACAKRVVRDGQGIRAWVAWRNRCQNRDVRQYVQGCGV [P89G P121G]",
    "number": 1.58
  },
  {
    "sequence.text": "MKALIVLGLVLLSVTVQGKVFERCELARTLKRLGMDGYRGISLANWMCLAKWESGYNTRATNYNAGDRSTDYGIFQINSRYWCNDGKTGGAVNACHLSCSALLQDNIADAVACAKRVVRDPQGIRAWVAWRNRCQNRDVRQYVQGCGV [P89G]",
    "number": 1.58
  },
  {
    "sequence.text": "MKALIVLGLVLLSVTVQGKVFERCELARTLKRLGMDGYRGISLANWMCLAKWESGYNTRATNYNAGDRSTDYGIFQINSRYWCNDGKTPGAVNACHLSCSALLQDNIADAVACAKRVVRDPQGIRAWPAWRNRCQNRDVRQYVQGCGV [V128P]",
    "number": 1.57
  },
  {
    "sequence.text": "MKALIVLGLVLLSVTVQGKVFERCELARTLKRLGMDGYRGISLANWMCLAKWESGYNTRATNYNPGDRSTDYGIFQINSRYWCNDGKTPGAVNACHLSCSALLQDNIADAVACAKRVVRDPQGIRAWVAWRNRCQNRDVRQYVQGCGV [A65P]",
    "number": 1.56
  }
]

With those in mind, consider the next variant.
Query: Value lookup for heat capacity change of unfolding; key = MKALIVLGLVLLSVTVQGKVFERCELARTLKRLGMDGYRGISLANWMCLAKWESGYNTRATNYNAGDRSTDYGIFQINSRYWCNDGKTPGAVNACHLSCSALLQDNIAPAVACAKRVVRDPQGIRAWVAWRNRCQNRDVRQYVQGCGV [D109P]
Response: 1.57
